tested on: DNA; assay: Binding affinity to calf thymus DNA at pH 7.0 at 20 uM after 18 hrs by thermal denaturation assay; assay type: nucleic-acid assay; settings: Bos taurus
endpoint-label: ΔTm (°C)

{"smiles-entry": "COc1cc2c(cc1OCCCSc1nnc3n1S(=O)(=O)c1ccccc1N3C)N=C[C@@H]1CCCN1C2=O", "observed-value": 1.5}

1 = COc1cc2c(cc1OCCCCCSc1nnc3n1S(=O)(=O)c1ccccc1N3c1ccccc1)N=C[C@@H]1CCCN1C2=O
2 = COc1cc2c(cc1OCCCCSc1nnc3n1S(=O)(=O)c1ccccc1N3C)N=C[C@@H]1CCCN1C2=O
3 = COc1cc2c(cc1OCCCCCSc1nnc3n1S(=O)(=O)c1ccccc1N3C)N=C[C@@H]1CCCN1C2=O
Query: I would appreciate it if you could sort these 3 molecules by ΔTm, starting from the smallest number. Response field: labels, in requested order.
Result: 2, 1, 3

###

tested on: PC-3; test: Cytotoxicity against human PC3 cells after 48 hrs by sulforhodamine B assay; type: functional; settings: PC-3, 48 h
GI50: recorded values
The figure you give is taken to be in µM; do not add the unit.

Worked cases, GI50 given:
{"smiles-entry": "COc1cc2c(cc1OCCCCCSc1nnc3n1S(=O)(=O)c1ccccc1N3C)N=C[C@@H]1CCCN1C2=O", "tested-on": "PC-3", "GI50 (µM)": 25.5}
{"smiles-entry": "COc1cc2c(cc1OCCCCSc1nnc3n1S(=O)(=O)c1ccccc1N3C)N=C[C@@H]1CCCN1C2=O", "tested-on": "PC-3", "GI50 (µM)": 25.5}

Query: Item COc1cc2c(cc1OCCCCCSc1nnc3n1S(=O)(=O)c1ccccc1N3c1ccccc1)N=C[C@@H]1CCCN1C2=O has what recorded GI50?
Result: 2.4

Query: Tell me the measured GI50 of COc1cc2c(cc1OCCCCSc1nnc3n1S(=O)(=O)c1ccccc1N3c1ccccc1)N=C[C@@H]1CCCN1C2=O , please.
Result: 28.8

Query: Request the reported GI50 associated with COc1cc2c(cc1OCCCSc1nnc3n1S(=O)(=O)c1ccccc1N3C)N=C[C@@H]1CCCN1C2=O
Result: 2.15
